# Tested on: NCI/ADR-RES
# ASSAY_TEXT: NCI tumour cell line growth inhibition, 48 h
Activity calls are given as the source filed them. Rule as the data show it: active = GI50 up to about 1.1 µM and inactive = higher.
Pick one and only one: active, inactive

Answered cases to consult:
>>> class("CCCCCN(CCCCC)CC(C)(C)C(O)c1ccc(OC)c2ccccc12 (stereo not given)")
"inactive"
>>> class("O=[N+]([O-])c1ccc(N2N=C(c3c(O)ccc4ccccc34)CC2c2ccc(Cl)cc2)c([N+](=O)[O-])c1 (stereo not given)")
"inactive"
>>> class("COC(=O)[C@H]1CO[C@H]2C/C(C)=C/CC/C(C)=C/CC[C@@]3(C)O[C@@H]3C[C@H]21")
"inactive"
>>> class("Cc1ccc(S(=O)(=O)N/N=C/c2c(O)ccc3ccccc23)cc1")
"inactive"
>>> class("N#CC(NCc1cccc(CNC(C#N)c2ccccc2)c1)c1ccccc1 (stereo not given)")
"inactive"

Now, please, on to the next compound.
Inquiry: // return assay outcome for O=C(O)C(O)C(O)C(O)C(O)CO.[Ba+2] (stereo not given)
Reply text: inactive

====

# Tested on: DU-145
# ASSAY_TEXT: NCI tumour cell line growth inhibition, 48 h
The source made the active and inactive calls. Rule as the data show it: active = GI50 up to about 1.1 µM and inactive = higher.
REPORTED_PROPERTY: GI50

Consider the following illustrative entries.
>>> result("N#C/C(C(=O)Nc1ccccc1)=C(/N)N1CCCCC1")
"> 100 µM (inactive)"
>>> result("CC(=O)NC1C(OCc2ccccc2)OC(CO)C(O)C1OCC(=O)N1CCCC1C(=O)N[C@@H](CCC(=O)NCCCCNc1c2ccccc2nc2cccc([N+](=O)[O-])c12)C(N)=O (some centres undefined)")
"31.8 µM (inactive)"
>>> result("COc1ccc(C2CC(c3c(O)ccc4ccccc34)=NN2C(C)=O)cc1OC (centres undefined)")
"36.2 µM (inactive)"

Inquiry: Return GI50 measured with DU-145 given this compound: Clc1ccc(NCc2nnc(COc3ccc(OCc4nnc(CNc5ccc(Cl)cc5)o4)c(Cl)c3)o2)cc1
Reply text: > 100 µM (inactive)

Inquiry: Moving on to the next compound: N#C/C(=N/Nc1[nH]cnc1C(N)=O)C(=O)Nc1ccccc1
Reply text: 6.3 µM (inactive)

====

# Test system: M19-MEL
# ASSAY_TEXT: NCI tumour cell line growth inhibition, 48 h
The source made the active and inactive calls. No stated cut-off is given here; in the data, active = GI50 up to about 1.1 µM and inactive = higher.
Pick one and only one: active, inactive

>>> class("CCOC(=O)/C(=C/c1cccc(Cl)c1)N(CC)CC")
"inactive"
>>> class("O=c1c(Cl)c(Cl)cnn1CCCl")
"inactive"
>>> class("Nc1nc(Cl)cc(NCCCCCCCCCCCCNc2cc(Cl)nc(N)n2)n1")
"inactive"
>>> class("CC(C)=CCC/C(C)=C/CC/C(C)=C/C1CCC(=O)C1(C)C (configuration not stated)")
"inactive"
>>> class("CCOC(=O)c1ccc(N[C@@H]2c3cc4c(cc3C(c3cc(OC)c(O)c(OC)c3)[C@H]3C(=O)OCC32)OCO4)cc1O (some centres not stated)")
"active"

Inquiry: // return assay outcome for Cc1nc(Nc2ccc(Cl)cc2)sc1C(=O)Nc1cccc2c(=O)[nH][nH]c(=O)c12
Reply text: inactive

Inquiry: Moving on to the next compound: NNC(=S)N/N=C(/C(=O)Nc1ccc([N+](=O)[O-])cc1)c1nc2ccc([N+](=O)[O-])cc2nc1O
Reply text: inactive

Inquiry: Moving on to the next compound: CC1OC(CC(=O)O)CC2=C1C(=O)c1c(O)cccc1C2=O (configuration not stated)
Reply text: active

Inquiry: Moving on to the next compound: CC1=C(C(=O)Nc2ccccc2)C(c2ccc(Cl)c(Cl)c2)C(C(=O)Nc2ccccc2)=C(C)N1
Reply text: inactive

Inquiry: Moving on to the next compound: [N-]=[N+]=CC(=O)OCC(N)C(=O)O (configuration not stated)
Reply text: inactive

====

# Test system: NCI-H226
# ASSAY_TEXT: NCI tumour cell line growth inhibition, 48 h
Calls of active or inactive are those of the source. Rule as the data show it: active = GI50 up to about 1.1 µM and inactive = higher.
Pick one and only one: active, inactive

Answered cases to consult:
>>> class("Cc1c2ccnc(-c3ccccc3)c2cc2c1[nH]c1ccccc12")
"inactive"
>>> class("CNC(=O)OCc1c2ccncc2c(C)c2c1[nH]c1ccccc12")
"active"
>>> class("O=C1CC(c2c[nH]c3ccccc23)C(=O)N1c1ccccc1 (stereo unspecified)")
"inactive"

Inquiry: // return assay outcome for COc1ccc(-c2cs/c(=N\c3ccccc3)n2CC(O)c2ccc([N+](=O)[O-])cc2)cc1 (stereo unspecified)
Reply text: inactive

Inquiry: Moving on to the next compound: O=C(CCC(=O)Nc1ccccc1C(F)(F)F)N/N=C1\C(=N\NC(=O)CCC(=O)Nc2ccccc2C(F)(F)F)C(c2ccc3c(c2)OCO3)Oc2ccccc21 (stereo unspecified)
Reply text: inactive

Inquiry: Moving on to the next compound: O=NN(CCCl)C(=O)NC1CCSc2ccccc21 (stereo unspecified)
Reply text: inactive

====

# System: EKVX
# ASSAY_TEXT: NCI tumour cell line growth inhibition, 48 h
The source made the active and inactive calls. Rule as the data show it: active = GI50 up to about 1.1 µM and inactive = higher.
Pick one and only one: 1.0 for active, 0.0 for inactive

>>> class("COc1cc(Nc2nc3ccc(C(F)(F)F)cc3nc2C(=O)O)cc(OC)c1OC")
0.0

Inquiry: // return assay outcome for CNC1C(O)C(OC2C(N)CC(N)C(OC3OC(CN)=CCC3N)C2O)OCC1(C)O (stereo unspecified)
Reply text: 0.0

Inquiry: Moving on to the next compound: O=C(NCC1Nc2ccncc2S(=O)(=O)N1)c1ccc(Br)cc1 (stereo unspecified)
Reply text: 0.0

Inquiry: Moving on to the next compound: Cc1sc2nc(N(C)C)oc(=O)c2c1C
Reply text: 0.0

Inquiry: Moving on to the next compound: CC(O)CNC1=CC(=O)C(=O)c2ccccc21 (stereo unspecified)
Reply text: 0.0

Inquiry: Moving on to the next compound: CCCCCN(CCCCC)CC(C)(C)C(O)c1ccc(OC)c2ccccc12 (stereo unspecified)
Reply text: 0.0

Inquiry: Moving on to the next compound: O=C(/C=C(\O)c1cc(-c2ccccc2)n(-c2ccccc2)n1)c1ccccc1
Reply text: 0.0

Inquiry: Moving on to the next compound: CCNC(=O)OCC1C2=C(C(=O)C(C)=C(N)C2=O)N2CC3C(N3C)C12OC (stereo unspecified)
Reply text: 0.0

Inquiry: Moving on to the next compound: O=C1c2cccnc2C(=O)C2C3C=CC(C3)C12 (stereo unspecified)
Reply text: 0.0

Inquiry: Moving on to the next compound: COc1ccc2c3c([nH]c2c1CC=C(C)C)C(=O)C=C(C)C3=O
Reply text: 0.0

Inquiry: Moving on to the next compound: CCOC(=O)/C(=C/c1cccc(Cl)c1)N(CC)CC
Reply text: 0.0

Inquiry: Moving on to the next compound: O=C(/C=C/c1cccs1)c1ccc([N+](=O)[O-])cc1
Reply text: 0.0

====

# System: OVCAR-3
# ASSAY_TEXT: NCI tumour cell line growth inhibition, 48 h
The source made the active and inactive calls. Rule as the data show it: active = GI50 up to about 1.1 µM and inactive = higher.
Pick one and only one: T = active, F = inactive

Answered cases to consult:
>>> class("COc1ccc2nc(NC(=O)C(=O)C(C#N)c3ccc(Cl)c(Cl)c3)sc2c1 (stereo not given)")
"F"
>>> class("CC(=O)OCCn1c(Cc2ccc([N+](=O)[O-])cc2)nn(C(C)=O)c1=O")
"F"
>>> class("CSc1nnc(CCC(=O)Nc2c(C)cccc2C)o1")
"F"
>>> class("CO[C@@H]1[C@@H](OC2OC(C)C(OC3CC(C)(O)C(OC(=O)CC(C)C)C(C)O3)C(N(C)C)C2O)[C@@H](CC=O)C[C@@H](C)C(=O)/C=C/C2O[C@H]2C[C@@H](C)OC(=O)C[C@H]1OC(C)=O (stereo not given in full)")
"F"
>>> class("CCOC(=O)c1ccc(N[C@@H]2c3cc4c(cc3C(c3cc(OC)c(O)c(OC)c3)[C@H]3C(=O)OCC32)OCO4)cc1O (stereo not given in full)")
"F"

Inquiry: // return assay outcome for c1cncc(CNc2ncn[nH]2)c1
Reply text: F

Inquiry: Moving on to the next molecule: Cc1nc(N)c(N2CCN(S(N)(=O)=O)CC2)c(O)n1
Reply text: F

====

# System: LOX IMVI
# ASSAY_TEXT: NCI tumour cell line growth inhibition, 48 h
The source made the active and inactive calls. Cut-off read from the data, not from the text of the source: active = GI50 up to about 1.1 µM and inactive = higher.
Pick one and only one: active, inactive

Inquiry: // return assay outcome for CC(C)=CCN1c2ccccc2[C@@]2(CC=C(C)C)CCN(C)[C@@H]12 [(+)-DEBROMOFLUSTRAMINE B]
Reply text: inactive

Inquiry: Moving on to the next compound: COc1ccc2c(c1)CCc1cc(OC)ccc1/[N+]([O-])=[N+]\2[O-]
Reply text: inactive

Inquiry: Moving on to the next compound: COc1ccc(C23C(=O)c4ccccc4N2O[C@H]2C(=O)N(c4ccccc4)C(=O)[C@H]23)cc1 (some centres undefined)
Reply text: inactive

Inquiry: Moving on to the next compound: CC/C(Cl)=N\OC(=O)Nc1ccccc1OC(F)(F)F
Reply text: inactive

Inquiry: Moving on to the next compound: Brc1ccc(/C(N=N/C(=N\Sc2ccccc2)c2ccc(Br)cc2)=N/Sc2ccccc2)cc1
Reply text: inactive

Inquiry: Moving on to the next compound: Nc1ncn([C@@H]2C=C(CO)C(O)C2O)c(=O)n1 (some centres undefined)
Reply text: inactive

Inquiry: Moving on to the next compound: CCNC(=O)OCC1C2=C(C(=O)C(C)=C(N)C2=O)N2CC3C(N3C)C12OC (centres undefined)
Reply text: inactive

Inquiry: Moving on to the next compound: N#Cc1cc2c(cc1C#N)/C(=N\c1cccc(N)n1)N/C2=N\c1cccc(N)n1
Reply text: inactive

Inquiry: Moving on to the next compound: Cc1cc(S(=O)(=O)O)c(NC(=O)C(=O)Cc2cc(=O)oc3cc(O)ccc23)cc1Cl
Reply text: inactive

Inquiry: Moving on to the next compound: Cc1cccc2c(N)c3cccc(C(=O)NCC[N+](C)(C)Cc4sccc4[N+](=O)[O-])c3nc12
Reply text: inactive

Inquiry: Moving on to the next compound: CCCC(=O)Nc1cc(/C=C/C(=O)N2CC(CCl)c3c2cc(OCc2ccccc2)c2[nH]cc(C)c32)n(C)c1 (centres undefined)
Reply text: active

Inquiry: Moving on to the next compound: O=C(N/N=C/c1ccc(Cl)cc1)c1c(Cl)c(Cl)c(Cl)c(Cl)c1-c1nc2ccccc2[nH]1
Reply text: inactive

Inquiry: Moving on to the next compound: CC1(C)CC[C@]2(C)CC=C3[C@]4(C)CC[C@H]5C(C)(C)C(=O)CC[C@]5(C)[C@H]4CC[C@@]3(C)[C@H]2C1
Reply text: inactive

Inquiry: Moving on to the next compound: CCOC(=O)c1ccc(N[C@@H]2c3cc4c(cc3C(c3cc(OC)c(O)c(OC)c3)[C@H]3C(=O)OCC32)OCO4)cc1O (some centres undefined)
Reply text: active

Inquiry: Moving on to the next compound: CN(C)CCCNc1ccc2nnn3c4ccc(O)cc4c(=O)c1c23
Reply text: inactive

Inquiry: Moving on to the next compound: C#CCN(CC#C)C(=O)C(=O)c1c[nH]c2ccc(OC)cc12
Reply text: inactive

Inquiry: Moving on to the next compound: COC(=O)C1=C(C(=O)OC)C(N(C)C)C(C(=O)OC)=C(C(=O)OC)S1
Reply text: inactive

Inquiry: Moving on to the next compound: COc1ccc(O)cc1
Reply text: inactive

Inquiry: Moving on to the next compound: Cc1ccc(SSCCCS(=O)O)cc1
Reply text: inactive
